test system: HepG2; test: cell viability relative to DMSO; higher = less toxic; settings: 72 h; 1 nM
// reported cell viability for each item listed
State the answer as a number, implicitly in %.

O=C1CS[C@@H](c2ccccc2Cl)c2cc(Cl)ccc2N1 (racemic); 100

*Q* Return value of cell viability for input Nc1ccc(S(=O)(=O)c2ccc(N)cc2)cc1 , no commentary.
*A* 112

*Q* Provide only the value of recorded cell viability for C[C@H]1CCC/C=C/[C@@H]2C[C@H](O)C[C@H]2[C@H](O)/C=C/C(=O)O1
*A* 95.6

*Q* Determine its reported cell viability: C[C@@H]1NC(=O)[C@@H]2CCCN2C(=O)[C@H](CC(N)=O)NC(=O)[C@@H]2CSSC[C@H](N)C(=O)N[C@H]3CSSC[C@H](NC1=O)C(=O)N[C@@H]([C@@H](C)O)C(=O)NCC(=O)N[C@H](C(=O)N[C@@H](Cc1ccc(O)cc1)C(=O)O)CSSC[C@H](NC(=O)[C@H](Cc1ccc(O)cc1)NC(=O)[C@H](CCC(=O)O)NC3=O)C(=O)N2 [linaclotide]
*A* 93.6

*Q* Specify measured cell viability for COc1ccccc1N1CCN(CCCCNC(=O)c2ccc(-c3ccc(C(C)=O)cc3)cc2)CC1 .
*A* 104

*Q* Find the measured cell viability of O=C(NCCN1CCC2(CC1)C(=O)NCN2c1cccc(F)c1)c1ccc(F)c(F)c1 and report it.
*A* 97.3

*Q* Entry CCOc1cc(C(=O)Nc2ccc(Cl)c(-c3nc4ccccc4[nH]3)c2)cc(OCC)c1OCC needs its cell viability filled in; supply it.
*A* 102

*Q* Tell me cell viability reported for Cc1cccc(C)c1OCC(=O)N[C@@H](Cc1ccccc1)[C@@H](O)C[C@H](Cc1ccccc1)NC(=O)[C@H](C(C)C)N1CCCNC1=O
*A* 107

*Q* In one line, give reported cell viability of the entry CCN(CC)c1ccc(C(=C2C=CC(=[N+](CC)CC)C=C2)c2ccccc2)cc1 .
*A* 109

*Q* Read the entry Cc1onc(-c2c(Cl)cccc2Cl)c1C(=O)N[C@@H]1C(=O)N2[C@@H]1SC(C)(C)[C@@H]2C(=O)O and write its reported cell viability.
*A* 97.5

*Q* Provide cell viability value for the following compound: CC(C)Nc1cccnc1N1CCN(C(=O)c2cc3cc(NS(C)(=O)=O)ccc3[nH]2)CC1
*A* 98.8

*Q* Provide measured cell viability value, entry: N=C(N)c1ccc(-c2ccc(-c3ccc(C(=N)N)cc3)o2)cc1
*A* 109

*Q* Please indicate cell viability recorded for Cc1ccc(S(=O)(=O)NCl)cc1
*A* 101
